Just for reference, ChEMBL document CHEMBL3739319 is where these values come from.

assay: Permeability of compound across artificial membrane after 3 hrs by LC-MS analysis; format: ADME; details: PAMPA; read-out: permeability

{"columns": ["ENTRY_SMILES", "Papp at 3 h [×10⁻⁶ cm/s]"],
 "data": [
  ["O=C(O)Cc1ccc(-c2ccc(CN3CC(=O)N(C4CCCCC4)C3=O)cc2)cc1", 2.2],
  ["O=C(O)Cc1ccc(-c2ccc(N(C(=O)OCc3ccccc3)C3CCCCC3)cc2)cc1", 15],
  ["O=C(O)Cc1ccc(-c2ccc(N(C(=O)OCc3ccccc3)C3CCOCC3)cc2)cc1", 2.3]
]}
